Below: a set of entries, each annotated with reported fractional inhibitory concentration index (FICI).
test system: Candida albicans; experiment: Potentiation of drimane-type sesquiterpene-induced antifungal activity against wild type Candida albicans Al-1 assessed as fractional inhibition concentration index; format: functional

// solved cases for fractional inhibitory concentration index (FICI) follow
Compound	Result
COc1ccc2cc3[n+](cc2c1OC)CCc1cc2c(cc1-3)OCO2.[Cl-] [BERBERINE CHLORIDE]	0.5
CC(=O)O[C@@H]1C=C(C=O)[C@](O)(C=O)[C@@]2(C)CCCC(C)(C)[C@H]12	0.3
CC1(C)CCC[C@@]2(C)[C@H]1[C@@H](O)C=C(C=O)[C@]2(O)C=O	0.8

# context switch: different compound, same fractional inhibitory concentration index (FICI)
Documented fractional inhibitory concentration index (FICI) of `CC(=O)O[C@H]1C=C(C=O)[C@](O)(C=O)[C@@]2(C)[C@H](OC(C)=O)CCC(C)(C)[C@H]12` : 1.5
